# Tested on: MCF-7-Mammacarcinomzellen
# assay_info: Growth inhibition of MCF-7 mammary carcinoma cells in vitro (cytostatic effect)
# Type: cell-based, menschlich
# run_conditions: MCF-7 cells; read-out: IC50 Hemmwirkung auf das Wachstum
Reported IC50 is given for each of the following compounds.

query_smiles	assay_target	IC50 [nM]
CCCCc1ccc2[nH]c(-c3ccc(C(F)(F)F)cc3)c(C=NNC(=O)c3cccnc3)c2c1	MCF-7-Mammacarcinomzellen	260
CCCCc1ccc2[nH]c(-c3ccc(C(F)(F)F)cc3)c(C=NC)c2c1	MCF-7-Mammacarcinomzellen	140
COc1ccc(-c2[nH]c3cc(Cl)c(C)cc3c2C=C(C#N)C#N)cc1	MCF-7-Mammacarcinomzellen	200
